# TESTED_TARGET: MAPK11 (human)
# TEST_DESCRIPTION: radiometric filter-binding kinase assay, Kinase HotSpot
# TEST_SETTINGS: compound 0.5 µM; ATP 10 µM
READOUT_TYPE: residual activity (%)
Output spec: scalar in %, unitless text.

Which measured residual activity value corresponds to "CC(C)n1cnc2c(Nc3cccc(Cl)c3)nc(NCCO)nc21" ? 92.2

Which measured residual activity value corresponds to "Nc1nc(Nc2ccc(S(N)(=O)=O)cc2)nn1C(=O)c1c(F)cccc1F" ? 94

Which measured residual activity value corresponds to "CC(C)(C)c1nc2c3ccc(F)cc3c3c(=O)[nH]ccc3c2[nH]1" ? 83.4

Which measured residual activity value corresponds to "Cc1ccc(NC(=O)c2ccc(CN3CCN(C)CC3)cc2)cc1Nc1nc(-c2cccnc2)cs1" ? 102

Which measured residual activity value corresponds to "COc1cc2ncnc(Nc3ccc(F)c(Cl)c3)c2cc1OCCCN1CCOCC1" ? 95.1

Which measured residual activity value corresponds to "O=c1cc(-c2cccc3c2Sc2ccccc2S3)oc(N2CCOCC2)c1" ? 102

Which measured residual activity value corresponds to "C#Cc1cccc(Nc2ncnc3cc(OCCOC)c(OCCOC)cc23)c1" ? 97.8

Which measured residual activity value corresponds to "Clc1ccc(Nc2nnc(Cc3ccncc3)c3ccccc23)cc1" ? 96.9

Which measured residual activity value corresponds to "NC(=O)c1ccc(N(C(N)=O)c2c(F)cccc2F)nc1-c1ccc(F)cc1F" ? 22.3

Which measured residual activity value corresponds to "O=C1Cc2c([nH]c3ccc([N+](=O)[O-])cc23)-c2ccccc2N1" ? 102

Which measured residual activity value corresponds to CS(=O)c1ccc(-c2nc(-c3ccc(F)cc3)c(-c3ccncc3)[nH]2)cc1 (configuration not stated) ? 68.9

Which measured residual activity value corresponds to "Cc1cc2ncc(-c3ccccc3)nc2cc1C" ? 96.8

Which measured residual activity value corresponds to "O=C1Nc2ccccc2/C1=C\c1c(Cl)[nH]c2ccccc12" ? 94.5

Which measured residual activity value corresponds to "CC(C)[C@H](CO)Nc1nc(Nc2cccc(Cl)c2)c2ncn(C(C)C)c2n1" ? 109

Which measured residual activity value corresponds to "CCN1/C(=C/C(C)=O)Sc2ccc(OC)cc21" ? 84.5

Which measured residual activity value corresponds to "CCCNC(=O)Nc1ccc(Oc2ncnc3cc(OC)c(OC)cc23)cc1Cl" ? 88.5

Which measured residual activity value corresponds to "O=c1cc(N2CCNCC2)oc2c(-c3ccccc3)cccc12" ? 105

Which measured residual activity value corresponds to "O=C(Nc1ccc(Cl)cc1)c1ccccc1NCc1ccncc1" ? 91.4

Which measured residual activity value corresponds to "COc1ccc(-c2cnc3c(-c4ccsc4)cnn3c2)cc1" ? 84.1

Which measured residual activity value corresponds to "Nc1n[nH]c2nnc(-c3c(-c4ccccc4)nn4ccccc34)cc12" ? 90

Which measured residual activity value corresponds to "Oc1ccc(-c2nc(-c3ccc(F)cc3)c(-c3ccncc3)[nH]2)cc1" ? 32.8

Which measured residual activity value corresponds to "Nc1nc(Nc2ccc(S(N)(=O)=O)cc2)nn1C(=S)Nc1c(F)cccc1F" ? 78.5
